# experiment_summary: NCI Yeast Anticancer Drug Screen. Data for the mec2-1 strain (AID 157)
# test_context: S. cerevisiae mec2-1 strain, at 3.7 µM, hits give high values
The panel holds about 79,000 compounds, 15% with a hit somewhere; the sample as a whole holds those more often.
growth inhibition values for the compounds below.
measured_parameter: growth inhibition (%)

1) C/C(=N\O)c1ccc2ccc3ccccc3c2c1; 1
2) C[C@]12CC[C@H](O)CC1=CC[C@@H]1[C@@H]2CC[C@]2(C)C(=O)CC[C@@H]12; -71
3) C[N+](CCCl)(CCCl)Cc1cccc2cccc([N+](=O)[O-])c12; 10
4) COc1ccc(/C=C(/C)[N+](=O)[O-])cc1; -51
5) N#Cc1cc(N(CCCl)CCCl)c([N+](=O)[O-])cc1[N+](=O)[O-]; 24
6) COC(=O)C1=C(C(=O)OC)C2OC1c1cc3ccccc3cc12; 58
7) CC1(Cl)CC(C)(/C=C/Cl)C(Cl)CC1Cl (configuration not stated); 3
8) O=C1NC(=S)NC(=O)C1=Cc1ccc([N+](=O)[O-])o1; -20
9) C[CH2][Sn]([CH2]C)([O]S(C)(=O)=O)[O]S(C)(=O)=O; -4
10) OC1(c2ccccc2)CC2CCC(C1)N2CCCC(O)(c1ccccc1)c1ccccc1 (configuration not stated); 1
11) S=C1NC2(CCCCC2)NC12CCCCC2; -19
12) CC(Cc1ccccc1)N(C)Cc1nc(C2CCC([N+](=O)[O-])O2)no1 (configuration not stated); 2
13) Oc1ccc(Cl)cc1Cc1ccccc1; 5
14) Cc1ccc2c(c1)C1(C)c3cc(C)ccc3SP1S2 (configuration not stated); 21
15) Oc1c(Br)cc(Br)cc1Br; -7
16) O=c1oc2ccccc2c(O)c1C(c1ccc2c(c1)Cc1ccccc1-2)c1c(O)c2ccccc2oc1=O; -4
17) COC(=O)C1=C(C(=O)OC)SC2(S1)C(C(=O)OC)=C(C(=O)OC)Sc1c2ssc1=O; 17
18) Nc1ccccc1C(=O)OCCc1ccccc1; -4
19) C/C(=N\NC(N)=O)C(CN1CCOCC1)C(c1ccccc1)c1c(O)c2ccccc2oc1=O (configuration not stated); 6
20) CC1CC(C)CC(C)C(O)/C(C#N)=C/C=C/CC(C2CCCC2C(=O)O)OC(=O)CC(O)C(C)C1 (configuration not stated); 98
21) CC1=C(O)C(=O)C=C2C1=CC=C1[C@@]2(C)CCC2(C)[C@@H]3C[C@@H](C)C(=O)C[C@]3(C)CC[C@]12C (some centres not stated); 24
22) O=C(O)CCCOc1cc(Cl)c(Cl)cc1Cl; -13

---

# experiment_summary: NCI Yeast Anticancer Drug Screen. Data for the rad18 strain (AID 177)
# test_context: S. cerevisiae rad18 mutant growth inhibition; at 100.0 µM
About 79,000 compounds went through this panel and 15% of them were active in at least one assay; those are over-represented in the sample as a whole. Activity calls are given as the source filed them. No stated cut-off is given here; in the data, active means growth inhibition above about 70%; inactive means the rest.
Outcomes: 1.0 (active), 0.0 (inactive)

1) O=Cc1ccc(C(F)(F)F)cc1.[C-]#[O+].[C-]#[O+].[C-]#[O+].[Cr]; 0.0
2) Nc1nnc(N)n1-n1c(N)nnc1N; 0.0
3) C=CC[N+]12CN3CN(CN(C3)C1)C2; 0.0
4) O=C(O)CCCc1cc(I)c(N(CCCl)CCCl)c(I)c1; 1.0
5) C[C@]12CCC(=O)C=C1CC[C@@H]1C2CC[C@@]2(C)C1CC[C@@H]2OC(=O)C12OC1CCC2=O (stereo not given in full); 1.0
6) O=[N+]([O-])c1ccc(N2CCC(CCCC3CCN(c4ccc([N+](=O)[O-])cc4[N+](=O)[O-])CC3)CC2)c([N+](=O)[O-])c1; 0.0
7) Nc1nc(-c2ccccc2)c(-c2ccccc2)[se]1; 0.0
8) O=C(O)C1C2C=CC(C2)C1c1ccccc1 (stereo not given); 0.0
9) CCc1cccc(C(C)C)c1NC1=C([n+]2ccc(C)cc2)C(=O)c2ccccc2C1=O; 0.0
10) CO[C@H](/C(C)=C/C=C/C(C)=C/c1coc(C)n1)[C@H](C)[C@H]1C[C@@H](O)[C@@]2(C)O[C@H]2/C=C/[C@@H](C)[C@@H]2C[C@@H](CC(=O)O2)C[C@H]2O[C@@H]2C(=O)O1; 1.0
11) CC1(C)N=C(N)N=C(N)N1c1cccc(N)c1.[Sn]; 0.0
12) CC[C@@]1(O)C(=O)OCc2c1cc1n(c2=O)Cc2cc3ccccc3nc2-1; 1.0
13) N#CC(C#N)=Cc1ccc(C#N)cc1; 0.0
14) CCCN(CCC)c1c([N+](=O)[O-])cc(S(N)(=O)=O)cc1[N+](=O)[O-]; 0.0
15) Cn1cnc(N)c1C(=N)[Se]; 1.0

---

# experiment_summary: NCI Yeast Anticancer Drug Screen. Data for the mlh1 rad18 strain (AID 175)
# test_context: S. cerevisiae mlh1 rad18 strain growth inhibition; at 50.0 µM; hits give high values
# Experimental: Growth inhibition of yeast strains with defined genetic alterations is measured as a screen for potential anti-cancer activity. Selected strains with alterations in DNA damage repair or cell cycle control were exposed to compounds and growth inhibition was measured relative to vehicle treated controls. The strain used in this assay is mlh1 rad18
Compounds without any hit were thinned out: in the full panel of roughly 79,000, 15% have a hit.
measured_parameter: growth inhibition (%)

1. COc1ccc(/C=C/[N+](=O)[O-])c(OC)c1OC; 87.8
2. CCCCCCCCCCCCCCCCCC(=O)[O][Hg][c]1ccccc1; 90.2
3. CC(=O)C1CCC2C3CCC4=CC(=[N+]5CCCCC5)CCC4(C)C3CCC12C (stereo not given); 95.8
4. CC12CCC(C1)C(C)(C)C2OC(=O)c1ccccc1N (stereo not given); -2.55
5. Oc1ccc([Te]CCNCC[Te]c2ccc(O)cc2)cc1; 71.5
6. CC(C)(C)c1cc([N+](=O)[O-])cc([N+](=O)[O-])c1O; 67.7
7. CC1(C)N=C(N)N=C(N)N1CCCOc1ccc(NC(=O)c2ccc(S(=O)(=O)F)cc2)cc1; 21.4
8. Nc1nc(N)c(-c2ccc(Cl)c(Cl)c2)c(CP(Cl)(Cl)(Cl)Br)n1; 58.4
9. COc1cc2c3c(c1)-c1c(ccc(OC)c1OC)CC3N(CCCl)CC2 (stereo not given); 86.7
10. CC[C@@]1(O)CC(OC2CC(N3CCOCC3)C(O)C(C)O2)c2c(O)c3c(c(O)c2[C@H]1O)C(=O)c1cccc(O)c1C3=O (stereo not given in full); 51.1

---

# experiment_summary: NCI Yeast Anticancer Drug Screen. Data for the sgs1 mgt1 strain (AID 161);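 note: 0% = growth of cultures given vehicle only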
# test_context: S. cerevisiae sgs1 mgt1 strain, at 50.0 µM (retest, dose inferred, filed as 5.0), hits give high values
The panel holds about 79,000 compounds, 15% with a hit somewhere; the sample as a whole holds those more often.
growth inhibition values for the compounds below.
measured_parameter: growth inhibition (%)

1) C=Cc1ccccc1 (tested in a mixture with another compound); -1
2) COc1c(NC(=O)CC(C)=O)[c]([Hg][O]C(C)=O)c(OC)c(Cl)[c]1[Hg][O]C(C)=O; 97
3) CCC[CH2][Sn]1([CH2]CCC)[O]C(=O)C(C(C)C)N=Cc2ccccc2[O]1 (stereo not given); 12
4) O=C(O)CCCc1cc(I)c(N(CCCl)CCCl)c(I)c1; 99
5) CC1(C)C(=O)C=CC2(C)C1CC(O)C1(C)C2CCC2(C)C(c3ccoc3)OC(=O)C3OC321 (stereo not given); 52

---

growth inhibition values for the compounds below.
# experiment_summary: NCI Yeast Anticancer Drug Screen. Data for the mec2-1 strain (AID 157)
# test_context: S. cerevisiae mec2-1 strain, at 50.0 µM, hits give high values
Compounds without any hit were thinned out: in the full panel of roughly 79,000, 15% have a hit.
measured_parameter: growth inhibition (%)

1) CCC1CCCCN1CC(C(C)=O)C(c1ccccc1)c1c(O)c2ccccc2oc1=O (stereo not given); 64.8
2) O=C(N/N=C/c1cc(Cl)cc(Cl)c1[O-])c1ccccc1O.O=C(N/N=C/c1cc(Cl)cc(Cl)c1[O-])c1ccccc1O.[Zn+2]; 91.8
3) c1ccc(N=c2nc(N3CCOCC3)ss2)cc1; 99.7
4) CC(=O)Oc1ccc(N=C2C=C(Cl)C(=O)C(Cl)=C2)cc1; -2.05
5) CCCNC(=O)Nc1ccc2c(c1)Cc1cc(N(CCCl)CCCl)ccc1-2; 23.1
6) CS(=O)(=O)OCCN(CCOS(C)(=O)=O)c1ccc(C=O)cc1; 83.6
7) O=c1oc2ccccc2c(O)c1C(c1ccco1)c1c(O)c2ccccc2oc1=O; 79.2
8) C/C=C(\C)C(=O)OC1C(C)=C2C(C1OC(=O)CCCCC)C(C)(OC(C)=O)CC(OC(=O)CCC)C1(O)C2OC(=O)C1(C)O (stereo not given); 83.5
9) CC(=O)C1CCC2C3CCC4CC([N+]5(C)CCCCC5)CCC4(C)C3CCC12C (stereo not given); 79.9
10) Nc1cc(Cl)ccc1C(=O)c1ccccc1Cl; 99
